# Target desc: NDM-1 (Klebsiella pneumoniae, UniProt C7C422)
# Sequence (C7C422 whole entry, looked up, species assumed): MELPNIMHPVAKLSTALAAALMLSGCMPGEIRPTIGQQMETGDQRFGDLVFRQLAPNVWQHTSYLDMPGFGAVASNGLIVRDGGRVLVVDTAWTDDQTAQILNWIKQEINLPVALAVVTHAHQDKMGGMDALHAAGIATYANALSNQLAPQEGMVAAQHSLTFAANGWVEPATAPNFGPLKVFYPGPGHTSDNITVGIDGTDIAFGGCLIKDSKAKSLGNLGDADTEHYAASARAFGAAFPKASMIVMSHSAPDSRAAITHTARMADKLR
# Protocol description: biochemical
# Format: biochemical
# Run conditions: fluorescence assay, CCF2-FA substrate, 1 pM enzyme, 2 hours at 25° C.; read-out: NDM-1 IC50
Reported metric: IC50 (nM)
Please reply with the bare figure in nM and do not write the unit itself.

Some solved entries appear below for comparison.
NCc1nc2c(-c3ccc(S(=O)(=O)N[C@@H](CN)CO)c(S(N)(=O)=O)c3-c3nn[nH]n3)cccc2s1: 0.0602
NC[C@H](O)CNS(=O)(=O)c1ccc(-c2ccncc2N)c(-c2nn[nH]n2)c1S(N)(=O)=O: 0.311
CS(=O)(=O)Nc1nc2c(-c3ccc(S(=O)(=O)N4CCNCC4)c(S(N)(=O)=O)c3-c3nn[nH]n3)cccc2s1: 0.29
NCCNS(=O)(=O)c1ccc(-c2cccc(SC[C@H](O)CN)c2)c(-c2nn[nH]n2)c1S(N)(=O)=O: 1.82
NC[C@@H](O)CNS(=O)(=O)c1ccc(-c2ccnc(N)c2)c(-c2nn[nH]n2)c1S(N)(=O)=O: 0.496

IC50 on NDM-1 (Klebsiella pneumoniae, UniProt C7C422) for Nc1nc2c(-c3ccc(S(=O)(=O)NC4CC5CNC4C5)c(S(N)(=O)=O)c3-c3nnn[nH]3)cccc2s1 (stereo not drawn) [Example 89] is 0.0581

IC50 on NDM-1 (Klebsiella pneumoniae, UniProt C7C422) for NCC(CN)NS(=O)(=O)c1ccc(-c2cccc3[nH]nnc23)c(-c2nn[nH]n2)c1S(N)(=O)=O is 0.0633

IC50 on NDM-1 (Klebsiella pneumoniae, UniProt C7C422) for NS(=O)(=O)c1c(S(=O)(=O)N[C@@H]2CNC[C@@H]2O)ccc(-c2cccc3[nH]nnc23)c1-c1nn[nH]n1 is 0.108

---

# Target desc: NDM-1 (Klebsiella pneumoniae, UniProt C7C422)
# Protocol description: biochemical
# Assay type: biochemical
# Run conditions: fluorescence assay, CCF2-FA substrate, 1 pM enzyme, 2 hours at 25° C.; read-out: NDM-1 IC50
Reported metric: pIC50
Schema: pIC50 number; meaning minus log10 of the concentration expressed in molar units.

Some solved entries appear below for comparison.
Nc1ncccc1-c1ccc(S(=O)(=O)NC[C@@H]2CNCCN2)c(S(N)(=O)=O)c1-c1nn[nH]n1: 10.09
CN(CCc1ccncc1)S(=O)(=O)c1ccc(-c2cccc3sc(N)nc23)c(-c2nnn[nH]2)c1S(N)(=O)=O.O=C(O)C(F)(F)F [Example 100, 2,2,2-trifluoroacetate]: 8.41
NCCNS(=O)(=O)c1ccc(-c2ccccc2NC(=O)CN)c(-c2nn[nH]n2)c1S(N)(=O)=O: 8.76
C[C@@H](CN)NS(=O)(=O)c1ccc(-c2ccc(N)nc2)c(-c2nn[nH]n2)c1S(N)(=O)=O: 8.72
C[C@H](CN)NS(=O)(=O)c1ccc(-c2cccc3c2nc(N)n3C)c(-c2nn[nH]n2)c1S(N)(=O)=O: 10.50

pIC50 on NDM-1 (Klebsiella pneumoniae, UniProt C7C422) for NCc1nc2cc(-c3ccc(S(=O)(=O)NC[C@H](O)CN)c(S(N)(=O)=O)c3-c3nn[nH]n3)ccc2[nH]1 is 9.56

pIC50 on NDM-1 (Klebsiella pneumoniae, UniProt C7C422) for NCCNS(=O)(=O)c1ccc(-c2ccnc(N)c2)c(-c2nn[nH]n2)c1S(N)(=O)=O is 9.22

pIC50 on NDM-1 (Klebsiella pneumoniae, UniProt C7C422) for NCc1nc2c(-c3ccc(S(=O)(=O)NC[C@@H](O)CN)c(S(N)(=O)=O)c3-c3nn[nH]n3)cccc2[nH]1 is 9.87

pIC50 on NDM-1 (Klebsiella pneumoniae, UniProt C7C422) for CS(=O)(=O)Nc1ccc(-c2ccc(S(=O)(=O)N[C@@H]3CCNC3)c(S(N)(=O)=O)c2-c2nnn[nH]2)cc1 is 10.43

pIC50 on NDM-1 (Klebsiella pneumoniae, UniProt C7C422) for Nc1nc2c(-c3ccc(S(=O)(=O)NC4CN5CCC4CC5)c(S(N)(=O)=O)c3-c3nnn[nH]3)cccc2s1.O=C(O)C(F)(F)F (stereo not shown) [Example 97, 2,2,2-trifluoroacetate] is 10.67

pIC50 on NDM-1 (Klebsiella pneumoniae, UniProt C7C422) for Nc1nc(-c2cccc(-c3ccc(S(=O)(=O)N[C@H]4CNC[C@H]4N)c(S(N)(=O)=O)c3-c3nn[nH]n3)c2)c[nH]1 is 9.59

pIC50 on NDM-1 (Klebsiella pneumoniae, UniProt C7C422) for Nc1ccc2cccc(-c3ccc(S(=O)(=O)N[C@@H]4CCNC4)c(S(N)(=O)=O)c3-c3nn[nH]n3)c2n1 is 10.68
